Please provide measured phosphorylation enrichment for the entries that follow.
# Target Or System: EPHB1 (UniProt P54762)
# Sequence (P54762 whole entry, looked up): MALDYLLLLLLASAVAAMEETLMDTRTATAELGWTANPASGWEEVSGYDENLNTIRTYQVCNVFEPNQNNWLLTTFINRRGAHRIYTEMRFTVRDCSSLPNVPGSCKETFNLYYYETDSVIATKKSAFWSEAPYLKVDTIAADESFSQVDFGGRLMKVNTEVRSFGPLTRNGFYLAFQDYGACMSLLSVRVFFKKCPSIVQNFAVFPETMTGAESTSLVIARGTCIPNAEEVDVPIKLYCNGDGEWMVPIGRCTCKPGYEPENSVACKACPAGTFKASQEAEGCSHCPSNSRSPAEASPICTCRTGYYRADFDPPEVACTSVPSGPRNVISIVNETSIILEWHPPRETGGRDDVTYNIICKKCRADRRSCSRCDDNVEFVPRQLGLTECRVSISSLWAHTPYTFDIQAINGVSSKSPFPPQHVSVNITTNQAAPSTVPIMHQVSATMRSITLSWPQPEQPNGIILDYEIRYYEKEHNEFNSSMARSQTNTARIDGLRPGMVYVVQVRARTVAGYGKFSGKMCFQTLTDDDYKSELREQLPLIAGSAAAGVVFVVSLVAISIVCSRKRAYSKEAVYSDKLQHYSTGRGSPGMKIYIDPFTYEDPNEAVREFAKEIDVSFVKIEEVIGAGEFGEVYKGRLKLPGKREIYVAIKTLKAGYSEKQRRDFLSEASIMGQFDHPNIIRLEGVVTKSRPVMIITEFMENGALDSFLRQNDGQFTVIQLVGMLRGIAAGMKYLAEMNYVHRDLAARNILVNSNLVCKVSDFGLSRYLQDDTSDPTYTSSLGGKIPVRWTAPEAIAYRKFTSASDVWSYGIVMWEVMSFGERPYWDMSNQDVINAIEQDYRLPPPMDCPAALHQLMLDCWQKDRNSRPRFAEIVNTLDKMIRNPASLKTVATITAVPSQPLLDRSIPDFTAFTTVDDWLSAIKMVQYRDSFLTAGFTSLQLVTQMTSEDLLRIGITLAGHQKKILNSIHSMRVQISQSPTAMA
# Experimental Details: phosphorylation enrichment, bacterial display (enrichment ratio); higher = better substrate or ligand; peptides without Tyr show the background
Numbers only.

# batch size: 3; output phosphorylation enrichment per entry
1. TVLWLYTGTRP [UGT1A1_Y337_R336L]
2. FKNGDYSEVMK [LCT_Y1638_N1639S]
3. KLIMECLPFGS [JAK2_Y931_Y931C_YF]

Result string:
1. 0.548
2. 0.859
3. 0.969

# batch size: 4; output phosphorylation enrichment per entry
1. TDKLFYIFTSG [SLC27A4_Y243_YF]
2. KILGRYFETSS [PAX2_Y72_G76S_YF]
3. PGIRMYQVQFN [LRFN1_Y454_YF]
4. IIGNGYFFHVF [MYBPC3_Y1135_R1138H_YF]

Result string:
0.732
0.424
0.467
0.569

====

# Target Or System: FGFR1 (UniProt P11362)
# Sequence (P11362 whole entry, looked up): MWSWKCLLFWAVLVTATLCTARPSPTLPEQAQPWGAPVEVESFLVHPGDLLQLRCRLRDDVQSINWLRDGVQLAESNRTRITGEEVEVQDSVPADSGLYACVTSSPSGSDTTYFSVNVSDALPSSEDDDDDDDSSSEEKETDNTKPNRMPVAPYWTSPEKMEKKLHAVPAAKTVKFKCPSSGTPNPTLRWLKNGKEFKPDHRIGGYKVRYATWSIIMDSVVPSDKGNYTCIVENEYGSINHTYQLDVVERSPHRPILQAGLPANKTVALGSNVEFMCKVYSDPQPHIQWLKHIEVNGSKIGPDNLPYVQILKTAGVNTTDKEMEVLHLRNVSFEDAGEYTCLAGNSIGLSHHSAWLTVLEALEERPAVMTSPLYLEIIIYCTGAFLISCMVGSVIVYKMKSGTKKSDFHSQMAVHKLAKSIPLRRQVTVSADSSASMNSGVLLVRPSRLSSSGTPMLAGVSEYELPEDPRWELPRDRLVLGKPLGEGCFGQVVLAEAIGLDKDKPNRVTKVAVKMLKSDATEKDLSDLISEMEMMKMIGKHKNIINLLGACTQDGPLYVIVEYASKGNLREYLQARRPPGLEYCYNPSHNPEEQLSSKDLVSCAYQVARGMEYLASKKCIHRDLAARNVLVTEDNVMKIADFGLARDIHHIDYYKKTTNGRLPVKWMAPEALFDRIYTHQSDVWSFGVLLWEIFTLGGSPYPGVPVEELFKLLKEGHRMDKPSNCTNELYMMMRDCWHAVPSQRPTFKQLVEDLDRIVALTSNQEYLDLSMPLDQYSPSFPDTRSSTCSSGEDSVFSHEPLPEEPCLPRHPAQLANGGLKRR
# Experimental Details: phosphorylation enrichment, bacterial display (enrichment ratio); higher = better substrate or ligand; peptides without Tyr show the background
We use 0.8 as the dividing line for phosphorylation enrichment: on or above the line is YES, below is NO.

Query string: Hi, just wondering whether PGIRMYQVQFN [LRFN1_Y454_YF] shows phosphorylation enrichment of 0.8 or higher.
Result string: NO

====

# Target Or System: Hck (UniProt P08631)
# Sequence (P08631 whole entry, looked up): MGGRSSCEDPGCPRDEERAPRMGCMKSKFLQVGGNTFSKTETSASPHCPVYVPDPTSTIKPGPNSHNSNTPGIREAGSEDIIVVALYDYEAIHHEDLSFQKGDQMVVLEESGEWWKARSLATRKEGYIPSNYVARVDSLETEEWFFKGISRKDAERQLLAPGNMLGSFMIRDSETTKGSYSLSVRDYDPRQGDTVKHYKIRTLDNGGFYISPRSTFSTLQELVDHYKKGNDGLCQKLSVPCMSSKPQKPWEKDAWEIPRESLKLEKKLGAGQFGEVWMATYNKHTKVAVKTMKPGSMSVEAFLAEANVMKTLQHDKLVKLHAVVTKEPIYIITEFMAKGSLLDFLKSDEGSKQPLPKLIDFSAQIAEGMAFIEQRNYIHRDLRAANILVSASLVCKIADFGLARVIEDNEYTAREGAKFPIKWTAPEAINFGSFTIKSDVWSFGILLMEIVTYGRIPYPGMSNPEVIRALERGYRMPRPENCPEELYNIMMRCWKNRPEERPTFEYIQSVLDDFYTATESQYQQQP
# Experimental Details: phosphorylation enrichment, bacterial display (enrichment ratio); higher = better substrate or ligand; peptides without Tyr show the background
Please provide measured phosphorylation enrichment for the entries that follow.

[[record]]
query_sequence = "DQGEQYKKELE [LMNA_Y259_V256G]"
endpoint_value = 0.535

[[record]]
query_sequence = "QRALLYEDALY [UNC13D_Y56]"
endpoint_value = 7.73

[[record]]
query_sequence = "SSMNDYNPLEK [MYOC_Y479_I477N]"
endpoint_value = 0.479

[[record]]
query_sequence = "CSSGGYEPRGR [FUS_Y239_R234C]"
endpoint_value = 0.436

[[record]]
query_sequence = "RRIHSYRGQLW [VHL_Y112_H115Q]"
endpoint_value = 0.664

[[record]]
query_sequence = "ERDFTYDELLN [EIF2S2_Y176_E177D_YF]"
endpoint_value = 0.994

[[record]]
query_sequence = "CLNAIYQNNLT [GSR_Y158_R153C]"
endpoint_value = 1.53

[[record]]
query_sequence = "DIDKIYVRTGI [PIK3CA_Y355]"
endpoint_value = 0.529


# batch size: 2; output phosphorylation enrichment per entry
1. VKPHRYRPGTV [H3-5_Y41]
2. EEQKKYYNAMK [SCN5A_Y1494]

Result string:
[0.328, 0.392]

====

# System: AncSZ
# Experimental Details: phosphorylation enrichment, bacterial display (enrichment ratio); higher = better substrate or ligand; peptides without Tyr show the background
Please provide measured phosphorylation enrichment for the entries that follow.
One number for each entry.

Solved entries:
[[record]]
query_sequence = "VTQEPYELFCE [CBL_Y368_Q367P_YF]"
endpoint_value = 1.58

[[record]]
query_sequence = "VKPHRYRPGTV [H3-5_Y41]"
endpoint_value = 0.513

[[record]]
query_sequence = "YLELNYKEDEY [MME_Y502]"
endpoint_value = 1.78

[[record]]
query_sequence = "HFVDEYDPTME [KRAS_Y32_I36M]"
endpoint_value = 1.5

[[record]]
query_sequence = "RKLVDYNSARH [BIN1_Y150_D151N]"
endpoint_value = 0.559


# batch size: 8; output phosphorylation enrichment per entry
1. FSTPPYLLEAA [BRIP1_Y921_S919P_YF]
2. TDECEYDELIV [TGM1_Y136_Y134C]
3. FADPFYDFEIE [ZC3H18_Y372_YF]
4. GGSDCYGSLRP [MYLK_Y846_R845C]
5. DLSEVYKPRRK [CCDC93_Y176]
6. ESDYTYSSSYE [SRPK2_Y427]
7. RLLVVYSWTQR [HBB_Y36_P37S]
8. VHNLDYFKMTT [FGFR3_Y647_K650M_YF]

Result string:
0.95
1.41
1.36
0.703
0.761
2.42
1.47
1.06

====

# Tested on: Fer (mouse)
# Experimental Details: phosphorylation enrichment, bacterial display (enrichment ratio); higher = better substrate or ligand; peptides without Tyr show the background
We use 0.6 as the dividing line for phosphorylation enrichment: on or above the line is y, below is n.

These recorded examples may help you get a feel for the data.
[[record]]
query_sequence = "INQGPYENHSV [ATP6V1B1_Y462_R465H]"
label_class = "y"

[[record]]
query_sequence = "FIGCIYLYLTK [GARS1_Y414_R412C]"
label_class = "n"

[[record]]
query_sequence = "LDLPGYCPLRE [CCDC116_Y291]"
label_class = "y"

[[record]]
query_sequence = "NDQPDYDSVAS [GIT2_Y392]"
label_class = "n"


Query string: Hi, just wondering whether IIQRAYRGHLL [SCN1A_Y1926_R1928G] shows phosphorylation enrichment of 0.6 or higher.
Result string: n

Query string: Hi, just wondering whether RRVLVYRGRGA [QDPR_Y16_G17R] shows phosphorylation enrichment of 0.6 or higher.
Result string: y

Query string: Hi, just wondering whether QDLLLYQTHSE [PKHD1_Y255_F253L] shows phosphorylation enrichment of 0.6 or higher.
Result string: y

====

# Target Or System: Grb2 SH2 (UniProt P62993)
# Sequence (P62993 whole entry, looked up): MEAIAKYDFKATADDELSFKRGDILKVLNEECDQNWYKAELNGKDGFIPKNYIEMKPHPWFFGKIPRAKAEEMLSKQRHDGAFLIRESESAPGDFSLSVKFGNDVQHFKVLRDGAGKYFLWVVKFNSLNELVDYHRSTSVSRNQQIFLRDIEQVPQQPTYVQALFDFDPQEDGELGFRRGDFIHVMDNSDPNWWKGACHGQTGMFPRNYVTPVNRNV
# Experimental Details: SH2 binding enrichment of the phosphorylated peptide, bacterial display (enrichment ratio); higher = better substrate or ligand; peptides without Tyr show the background
Please provide measured SH2 binding enrichment for the entries that follow.
Answers are plain numbers.

Solved entries:
[[record]]
query_sequence = "ETEMLYGSAPR [PRC1_Y464]"
endpoint_value = 0.784

[[record]]
query_sequence = "QRAADYFSQQM [GBP6_Y333_YF]"
endpoint_value = 0.789

[[record]]
query_sequence = "PGIRMYQVQFN [LRFN1_Y454_YF]"
endpoint_value = 1.61


# batch size: 8; output SH2 binding enrichment per entry
1. HLDRSYSYSYS [PEAR1_Y890_R885H]
2. DKEKWYPLGTS [PIK3C2G_Y1438_N1442T]
3. VFGEEYEEQPR [ZMYM2_Y1033]
4. RRIHSYRGRLW [VHL_Y112_H115R]
5. SARSAYQEAMD [SFN_Y151]
6. PSQRHYVFFFS [PTEN_Y174_R173H_YF]
7. NCLRVYVAGRF [CRB1_Y711_E710V]
8. EPVSDYINADI [PTPN11_Y304_N308D]

Result string:
0.889
0.852
1.01
0.967
0.766
1.25
1.11
0.761

# batch size: 4; output SH2 binding enrichment per entry
1. KFVKMYDNHQL [MYO9A_Y203_YF]
2. RDEHGYISRCF [HSPB1_Y133_Q128R]
3. HYEDGYPGGSD [CTNND1_Y221]
4. FDAHIYEGCVI [PRKCD_Y64_R67C]

Result string:
1: 0.79; 2: 0.717; 3: 0.915; 4: 0.713

====

# Target Or System: FGFR1 (UniProt P11362)
# Experimental Details: phosphorylation enrichment, bacterial display (enrichment ratio); higher = better substrate or ligand; peptides without Tyr show the background
Please provide measured phosphorylation enrichment for the entries that follow.
One number for each entry.

[[record]]
query_sequence = "EILLSYPRTGY [TGM1_Y365_L366P]"
endpoint_value = 0.445

[[record]]
query_sequence = "KDAGDYKFKAK [LRIT3_Y326_C328Y_YF]"
endpoint_value = 0.421

[[record]]
query_sequence = "DIDKIYVRTGI [PIK3CA_Y355]"
endpoint_value = 0.518

[[record]]
query_sequence = "IVLRSYPASDH [NID2_Y449_G453D]"
endpoint_value = 0.496

[[record]]
query_sequence = "FEEDSYVTRSQ [RET_Y905_K907T_YF]"
endpoint_value = 0.452

[[record]]
query_sequence = "CGPLLYGLVHQ [PRKCG_Y122_S119P]"
endpoint_value = 0.593


Continue with the sequence presented below.
Query string: Please supply the value of reported phosphorylation enrichment for the item ATARPYSPYII [LRP5_Y1528_R1529S]
Result string: 0.351

====

# System: Fer (mouse)
# Experimental Details: phosphorylation enrichment, bacterial display (enrichment ratio); higher = better substrate or ligand; peptides without Tyr show the background
In this scheme, each record receives a class according to its phosphorylation enrichment; the ranges are band 1 = under 0.4, band 2 = from 0.4 up to 0.8, band 3 = 0.8 and over

These recorded examples may help you get a feel for the data.
[[record]]
query_sequence = "GHEFIYVDRMQ [PDGFRB_Y581_P584R_YF]"
target_or_system = "Fer (mouse)"
label_class = "band 1"

[[record]]
query_sequence = "CGTPDNIAPEI [PRKCG_Y521_Y521N]"
target_or_system = "Fer (mouse)"
label_class = "band 2"

[[record]]
query_sequence = "LPEENYQVLRF [ARHGAP1_Y365]"
target_or_system = "Fer (mouse)"
label_class = "band 3"

[[record]]
query_sequence = "KDAGDYKFKAK [LRIT3_Y326_C328Y_YF]"
target_or_system = "Fer (mouse)"
label_class = "band 1"

[[record]]
query_sequence = "NLVSEYQQFQD [TUBB3_Y422_D417N_YF]"
target_or_system = "Fer (mouse)"
label_class = "band 2"


Now look at this one.
Query string: // return the class label for VAHAVYQAVLS [SMG1_Y549]
Result string: band 3
